- Test system: IL-6 production in LPS-stimulated murine spleenocytes
- experimentDescription: Inhibition of IL-6 production in LPS-stimulated murine spleenocytes in vitro
- Format: cell-based
- conditionNotes: Mus musculus, 50 μM concentration of the compound, read-out: inhibition of interleukin-6 (IL-6) production
Overview of recorded inhibition at 50 µM for various compounds
recordedEndpoint: inhibition at 50 µM

molecule: CC[C@H]1OC(=O)[C@H](C)[C@@H](O[C@H]2C[C@@](C)(OC)[C@@H](O)[C@H](C)O2)[C@H](C)[C@@H](O[C@@H]2O[C@H](C)C[C@H](N(C)C)[C@H]2OCCCNC(=O)c2c(C)nn(C)c2Cl)[C@](C)(O)C[C@@H](C)CN(C)[C@H](C)[C@@H](O)[C@]1(C)O
targetSystem: IL-6 production in LPS-stimulated murine spleenocytes
reportedValue: > 40%
--
molecule: CC[C@H]1OC(=O)[C@H](C)[C@@H](O[C@H]2C[C@@](C)(OC)[C@@H](O)[C@H](C)O2)[C@H](C)[C@@H](O[C@@H]2O[C@H](C)C[C@H](N(C)C)[C@H]2OCCCNC(=O)COC)[C@](C)(O)C[C@@H](C)CN(C)[C@H](C)[C@@H](O)[C@]1(C)O
targetSystem: IL-6 production in LPS-stimulated murine spleenocytes
reportedValue: > 40%
--
molecule: CC[C@H]1OC(=O)[C@H](C)[C@@H](O[C@H]2C[C@@](C)(OC)[C@@H](O)[C@H](C)O2)[C@H](C)[C@@H](O[C@@H]2O[C@H](C)C[C@H](N(C)C)[C@H]2OCCCNC(=O)CC(C)C)[C@](C)(O)C[C@@H](C)CN(C)[C@H](C)[C@@H](O)[C@]1(C)O
targetSystem: IL-6 production in LPS-stimulated murine spleenocytes
reportedValue: > 40%
--
molecule: CC[C@H]1OC(=O)[C@H](C)[C@@H](O[C@H]2C[C@@](C)(OC)[C@@H](O)[C@H](C)O2)[C@H](C)[C@@H](O[C@@H]2O[C@H](C)C[C@H](N(C)C)[C@H]2OCCCNC(=O)CN(CC)CC)[C@](C)(O)C[C@@H](C)CN(C)[C@H](C)[C@@H](O)[C@]1(C)O
targetSystem: IL-6 production in LPS-stimulated murine spleenocytes
reportedValue: > 40%
--
molecule: CC[C@H]1OC(=O)[C@H](C)[C@@H](O[C@H]2C[C@@](C)(OC)[C@@H](O)[C@H](C)O2)[C@H](C)[C@@H](O[C@@H]2O[C@H](C)C[C@H](N(C)C)[C@H]2OCCCNC(=O)c2ccccn2)[C@](C)(O)C[C@@H](C)CN(C)[C@H](C)[C@@H](O)[C@]1(C)O
targetSystem: IL-6 production in LPS-stimulated murine spleenocytes
reportedValue: > 40%
--
molecule: CC[C@H]1OC(=O)[C@H](C)[C@@H](O[C@H]2C[C@@](C)(OC)[C@@H](O)[C@H](C)O2)[C@H](C)[C@@H](O[C@@H]2O[C@H](C)C[C@H](N(C)C)[C@H]2OCCCNC(C)=O)[C@](C)(O)C[C@@H](C)CN(C)[C@H](C)[C@@H](O)[C@]1(C)O
targetSystem: IL-6 production in LPS-stimulated murine spleenocytes
reportedValue: > 40%
--
molecule: CCC(=O)NCCCO[C@H]1[C@H](O[C@@H]2[C@@H](C)[C@H](O[C@H]3C[C@@](C)(OC)[C@@H](O)[C@H](C)O3)[C@@H](C)C(=O)O[C@H](CC)[C@@](C)(O)[C@H](O)[C@@H](C)N(C)C[C@H](C)C[C@@]2(C)O)O[C@H](C)C[C@@H]1N(C)C
targetSystem: IL-6 production in LPS-stimulated murine spleenocytes
reportedValue: > 40%
